IC50 reference
- system: human TRPA1 (Homo sapiens, UniProt O75762)
- Construct: expressed in transfected cells
- Sequence (O75762 whole entry): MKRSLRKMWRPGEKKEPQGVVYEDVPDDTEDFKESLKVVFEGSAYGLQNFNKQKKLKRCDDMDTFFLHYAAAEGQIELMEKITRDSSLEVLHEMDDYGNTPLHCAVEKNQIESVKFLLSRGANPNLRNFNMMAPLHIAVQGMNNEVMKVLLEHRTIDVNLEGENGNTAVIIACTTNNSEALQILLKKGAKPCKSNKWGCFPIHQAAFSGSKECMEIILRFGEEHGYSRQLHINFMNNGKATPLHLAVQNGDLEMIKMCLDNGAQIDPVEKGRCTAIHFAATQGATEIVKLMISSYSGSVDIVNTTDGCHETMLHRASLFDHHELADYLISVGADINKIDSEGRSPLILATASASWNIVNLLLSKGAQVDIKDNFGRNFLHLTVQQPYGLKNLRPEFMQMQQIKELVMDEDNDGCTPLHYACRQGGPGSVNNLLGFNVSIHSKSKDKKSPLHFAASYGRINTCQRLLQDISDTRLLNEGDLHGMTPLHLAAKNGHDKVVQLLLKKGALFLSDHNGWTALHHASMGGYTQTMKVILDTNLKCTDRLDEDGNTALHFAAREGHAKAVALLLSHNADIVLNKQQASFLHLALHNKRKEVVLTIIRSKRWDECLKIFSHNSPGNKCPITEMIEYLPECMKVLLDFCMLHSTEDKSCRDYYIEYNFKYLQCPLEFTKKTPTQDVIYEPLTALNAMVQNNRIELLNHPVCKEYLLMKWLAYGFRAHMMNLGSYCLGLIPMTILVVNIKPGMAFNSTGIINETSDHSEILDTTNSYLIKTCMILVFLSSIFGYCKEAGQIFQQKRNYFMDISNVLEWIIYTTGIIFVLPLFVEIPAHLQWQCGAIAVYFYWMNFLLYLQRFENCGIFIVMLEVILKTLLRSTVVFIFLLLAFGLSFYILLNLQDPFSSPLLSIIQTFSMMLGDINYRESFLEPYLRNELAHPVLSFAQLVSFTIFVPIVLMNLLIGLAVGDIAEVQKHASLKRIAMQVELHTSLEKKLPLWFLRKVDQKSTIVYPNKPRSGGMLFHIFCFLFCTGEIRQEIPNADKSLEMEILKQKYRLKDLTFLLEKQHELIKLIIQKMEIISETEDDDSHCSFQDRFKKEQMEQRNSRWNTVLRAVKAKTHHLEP
- assaySummary: Cell-based functional intracellular calcium ([Ca2+]i) assay, Fluo-4/Fluo-8, FlexStation, challenge with reference TRPA1 agonist (FFA, AITC or 4-HNE)
- setupConditions: HEK293 cells expressing human TRPA1; IC50 class after addition of reference TRPA1 agonist (FFA, AITC or 4-HNE); read-out: human TRPA1-HEK Activity
- Method: A stable HEK293 cell line that expresses human TRPA1 in an inducible manner was employed in this assay. […] The expression of TRPA1 was induced by including 1 μg/ml doxycycline in the culture medium. […] Fluorescence changes were measured using a fluid handling integrated fluorescence plate reader, FlexStation (Molecular Devices, Sunnyvale, Calif.). […]

| compound | system | IC50 |
| --- | --- | --- |
| O=C(c1cc(-c2cccnc2Cl)n(-c2ccc(C(F)(F)F)c(F)c2)n1)N1CCC2(CC1)C(=O)NCN2c1ccc(F)cc1 | human TRPA1 (Homo sapiens, UniProt O75762) | 0.001 to 5 µM |
| O=C(c1cc(-c2cccnc2)n(-c2cc(F)c(F)c(F)c2)n1)N1C2CCC1CC(n1c(=O)[nH]c3ccc(F)c(F)c31)C2 (stereo not shown) | human TRPA1 (Homo sapiens, UniProt O75762) | > 25 µM |
| N#Cc1ccc(-n2nc(C(=O)N3CCC(n4c(=O)[nH]c5ccc(F)c(F)c54)CC3)cc2-c2cccnc2)c(C(F)(F)F)c1 | human TRPA1 (Homo sapiens, UniProt O75762) | 0.001 to 5 µM |
| O=C(c1cc(-c2ccncc2)n(-c2ccc(F)c(F)c2)n1)N1CC(=O)N2CCc3ccccc3C2C1 (stereo not shown) | human TRPA1 (Homo sapiens, UniProt O75762) | > 25 µM |
| CC1CC2(CCN1C(=O)c1cc(-c3cccnc3)n(-c3ccc(F)c(C(F)(F)F)c3)n1)OC(=O)Nc1ccc(C(F)(F)F)cc12 (stereo not shown) | human TRPA1 (Homo sapiens, UniProt O75762) | 5 to 25 µM |
| O=C(c1cc(-c2ccncc2)n(-c2ccc(C(F)(F)F)c(F)c2)n1)N1CCC(N2C(=O)OC[C@H]2c2ccccc2)CC1 | human TRPA1 (Homo sapiens, UniProt O75762) | > 25 µM |
| O=C(c1cc(-c2ccncc2)n(-c2ccccc2)n1)N1CCN(c2ccc(C(F)(F)F)cn2)CC1 | human TRPA1 (Homo sapiens, UniProt O75762) | > 25 µM |
| O=C(c1cc(-c2cccnc2)n(-c2cc(F)c(F)c(F)c2)n1)N1CCC(n2c(=O)[nH]c3cccnc32)CC1 | human TRPA1 (Homo sapiens, UniProt O75762) | 0.001 to 5 µM |
| O=C(c1cc(-c2cccnc2)n(-c2ccc(C(F)(F)F)cc2C(F)(F)F)n1)N1CCC(n2c(=O)[nH]c3ccc(F)c(F)c32)CC1 | human TRPA1 (Homo sapiens, UniProt O75762) | 0.001 to 5 µM |
| O=C(c1cc(-c2ccncc2)n(-c2ccccc2)n1)N1CCC2(CC1)CC(F)(F)CO2 | human TRPA1 (Homo sapiens, UniProt O75762) | 5 to 25 µM |
| O=C(c1cc(-c2ccncc2)n(-c2cccc(C(F)(F)F)c2)n1)N1CCC2(CC1)C(=O)NCN2c1ccccc1 | human TRPA1 (Homo sapiens, UniProt O75762) | 5 to 25 µM |
| Cc1cc(-n2nc(C(=O)N3CCC(n4c(=O)[nH]c5ccc(F)c(F)c54)CC3)cc2-c2cccnc2)cc(C(F)(F)F)c1F | human TRPA1 (Homo sapiens, UniProt O75762) | 0.001 to 5 µM |
| O=C(c1cc(-c2cccnc2)n(-c2ccc(C(F)(F)F)c(F)c2)n1)N1CCC2(CC1)C(=O)NCN2c1ccc(F)c(Cl)c1 | human TRPA1 (Homo sapiens, UniProt O75762) | 0.001 to 5 µM |
